Biological target: human emopamil binding protein and human 7-dehydrocholesterol reductase (hEBP-DHCR7) (Homo sapiens (Human), UniProt Q15125)
Sequence (Q15125 whole entry): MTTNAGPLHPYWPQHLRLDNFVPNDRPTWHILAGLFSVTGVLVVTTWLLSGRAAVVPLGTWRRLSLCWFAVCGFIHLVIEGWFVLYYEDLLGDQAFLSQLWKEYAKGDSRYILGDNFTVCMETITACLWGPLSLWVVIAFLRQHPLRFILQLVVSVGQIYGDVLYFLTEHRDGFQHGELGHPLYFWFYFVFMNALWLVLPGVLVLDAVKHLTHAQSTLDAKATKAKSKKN
PARAMETER_MEASURED: Ki (nM)

Please review the entries below; each comes with its answer.
1. CC(C)n1nc(-c2cnc(C(F)(F)F)nc2)cc1[C@H]1CC[C@H](N2CCO[C@H](CF)C2)C1 (single isomer, unassigned) [Compound 132*]    88
2. CC(C)n1nc(-c2cncc(C(F)(F)F)c2)cc1[C@H]1[C@@H]2C[C@H](N3CCOC(C)(C)C3)C[C@@H]21 [Compound 34]    34.5
3. CCn1nc(-c2ccc(C(F)(F)F)nc2)nc1[C@H]1CC[C@H](N2CCCOCC2)CC1 [8*]    38.2
4. CC(C)n1nc(-c2cnc(C(F)(F)F)nc2)nc1[C@H]1[C@@H]2C[C@H](N3CCOC[C@H]3C)C[C@@H]21 [Compound 204]    16

P. CC(C)n1nc(-c2cncc(C(F)(F)F)c2)cc1[C@H]1[C@@H]2CC(N3CCCOCC3)C[C@@H]21 (single isomer, unassigned) [30*]
Q. CC(C)n1nc(-c2cncc(F)c2)cc1[C@H]1[C@@H]2C[C@H](N3CCCOCC3)C[C@@H]21 [Compound 187*]
Task: Param metric = Ki; output whichever of P , Q has the minimum value. Give the label under which the chosen entry appears.
Output: Q
